Just for reference, patent US20230049752A1 is where these values come from.

biological target: CLDN3/4 (endogenous on LS513 or MCF7 cells); experiment: FACS titration of labelled mAb on LS513 cells (endogenous CLDN3/4+)
quantity name: EC50 (nM)
Respond with the bare value in nM.

AB15 (antibody, V domains shown, full-length IgG (ExpiCHO)) VH: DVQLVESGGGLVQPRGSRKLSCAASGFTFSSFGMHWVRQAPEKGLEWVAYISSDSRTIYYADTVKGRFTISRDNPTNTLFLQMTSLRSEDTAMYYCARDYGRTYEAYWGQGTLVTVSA VL: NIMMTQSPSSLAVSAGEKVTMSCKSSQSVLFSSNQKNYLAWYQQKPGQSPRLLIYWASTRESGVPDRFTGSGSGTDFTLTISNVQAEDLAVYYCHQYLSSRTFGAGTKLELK ... 5000
AB10 (antibody, V domains shown, full-length IgG (ExpiCHO)) VH: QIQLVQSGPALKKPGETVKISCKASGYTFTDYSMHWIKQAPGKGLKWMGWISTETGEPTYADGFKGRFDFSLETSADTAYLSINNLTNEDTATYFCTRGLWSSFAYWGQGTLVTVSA VL: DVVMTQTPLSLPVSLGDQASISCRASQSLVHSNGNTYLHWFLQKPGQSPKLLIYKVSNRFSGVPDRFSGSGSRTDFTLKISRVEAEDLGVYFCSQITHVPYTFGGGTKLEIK ... 1950

Alright, here's another binder for you.
Q. Recorded EC50 of AB12 (antibody, V domains shown, full-length IgG (ExpiCHO)) VH: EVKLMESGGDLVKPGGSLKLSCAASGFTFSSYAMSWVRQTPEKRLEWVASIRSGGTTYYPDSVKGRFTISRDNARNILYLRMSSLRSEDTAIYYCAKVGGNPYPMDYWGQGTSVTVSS VL: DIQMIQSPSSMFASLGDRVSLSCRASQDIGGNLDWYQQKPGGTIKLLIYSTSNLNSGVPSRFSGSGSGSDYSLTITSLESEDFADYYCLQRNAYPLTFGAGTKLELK , please.
A. 2270
